# experiment: Metabolic stability in human liver microsomes assessed as parent compound remaining at 100 uM incubated for 60 mins in presence of NADPH by LC-MS/MS analysis
recorded metric: remaining at 1 h, 100 µM (%)
Give your result in % as a bare value.

[in] Entry CN(C)C1CCN(C(=O)c2ccc(N3N=C(c4ccccc4)/C(=N/Nc4ccccc4)C3=O)cc2)CC1 : reported remaining at 1 h, 100 µM = ?
[out] 97.9

[in] For the compound O=C1/C(=N\Nc2nccs2)C(c2ccccc2)=NN1c1nc(-c2ccccc2)cs1 , what remaining at 1 h, 100 µM is on record?
[out] 55.6

* * *

# Tested on: PC-3
# experiment: Antiproliferative activity against human PC-3 cells assessed as cell growth inhibition incubated for 72 hrs by MTT assay
# Format: functional
Exercise: state measured GI50 for each of the compounds provided.

[in] Using the record for O=C1CCN(C(=O)c2ccc(N3N=C(c4ccccc4)/C(=N/Nc4ccccc4)C3=O)cc2)CC1 , report its GI50.
[out] > 50 µM

[in] Need GI50 of CN(C)C1CCN(C(=O)c2ccc(N3N=C(c4ccccc4)C(=C4CCN(C(=O)c5cscn5)CC4)C3=O)cc2)CC1 , thanks.
[out] 16.8 µM

[in] Requested field: GI50. Item: CN(C)C1CCN(C(=O)c2ccc(N3N=C(c4ccccc4)/C(=C/Nc4ccccc4)C3=O)cc2)CC1
[out] > 20 µM

[in] Please look up its GI50: O=C(c1ccc(N2N=C(c3ccccc3)/C(=N/Nc3ccccc3)C2=O)cc1)N1CCN(C2COC2)CC1
[out] > 50 µM

[in] Please report the recorded GI50 for O=C(c1cscn1)N1CCC(C2=NN(c3nc(-c4ccccc4)cs3)C(=O)/C2=N\Nc2nccs2)CC1 .
[out] > 50 µM

[in] So what's the measured GI50 for this one? N[C@@H]1CCCN(C(=O)c2ccc(N3N=C(c4ccccc4)/C(=N/Nc4ccccc4)C3=O)cc2)C1
[out] 5.39 µM

[in] Find the recorded GI50 belonging to CN(C)C1CCN(C(=O)c2ccc(N3N=C(c4ccccc4)C(=C4CCN(C(=O)c5cc6cc(Cl)ccc6[nH]5)CC4)C3=O)cc2)CC1 and report it.
[out] > 50 µM

[in] Return reported GI50; argument: CN(C)C1CCN(C(=O)c2ccc(N3N=C(c4ccccc4)CC3=O)cc2)CC1
[out] > 50 µM

* * *

Give measured half-life at 1 h, 100 µM for each item. Keep answers brief.
# experiment: in vitro
# condition description: human, liver microsomes

[in] Request the reported half-life at 1 h, 100 µM associated with CN(C)C1CCN(C(=O)c2ccc(N3N=C(c4ccccc4)/C(=N/Nc4ccccc4)C3=O)cc2)CC1
[out] > 2.42 h

[in] Value lookup for half-life at 1 h, 100 µM; key = O=C1/C(=N\Nc2nccs2)C(c2ccccc2)=NN1c1nc(-c2ccccc2)cs1
[out] 1.08 h

* * *

# Test system: HCT-116
# experiment: Antiproliferative activity against human HCT-116 cells assessed as cell growth inhibition incubated for 72 hrs by MTT assay
# Type: functional
I'd appreciate it if you could label each record using GI50 and these ranges: L = under 3 µM, M = from 3 µM up to 10 µM, H = 10 µM and over

[in] Category of CN(C)C1CCN(C(=O)c2ccc(N3N=C(c4ccccc4)/C(=N/Nc4ccc5ccccc5c4)C3=O)cc2)CC1 :
[out] L

[in] Assign a bin to O=C(NCc1ccncc1)c1ccc(N2N=C(c3ccccc3)/C(=N/Nc3ccccc3)C2=O)cc1
[out] H

[in] Would you mind sorting CN(C)C1CCN(C(=O)c2ccc(N3N=C(c4ccccc4)C(=C4CCN(C(=O)c5cscn5)CC4)C3=O)cc2)CC1 into the appropriate category?
[out] H

[in] For the record CN1CCC(NC(=O)c2cccc(N3N=C(c4ccccc4)/C(=N/Nc4ccccc4)C3=O)c2)CC1 , report the class its GI50 corresponds to.
[out] M

[in] Class (by measured GI50) for CN(C)C1CCN(C(=O)c2ccc(N3N=C(C4CC4)/C(=N/Nc4ccccc4)C3=O)cc2)CC1
[out] M

[in] Each molecule maps to one class by GI50. Which class for CS(=O)(=O)N1CCN(C(=O)c2ccc(N3N=C(c4ccccc4)/C(=N/Nc4ccccc4)C3=O)cc2)CC1 ?
[out] H

[in] Form field 'band' for CN(C)C1CCN(C(=O)c2ccc(N3N=C(c4ccccc4)/C(=C/NCc4ccccc4)C3=O)cc2)CC1
[out] H

[in] Band of CN(C)C1CCN(C(=O)c2ccc(N3N=C(c4ccccc4)C(=C4CCN(C(=O)c5cc6cc(Cl)ccc6[nH]5)CC4)C3=O)cc2)CC1 ?
[out] H

[in] Hey, which category is CN(C)C1CCN(C(=O)c2ccc(N3N=C(c4ccccc4)/C(=N/Nc4cc(C(F)(F)F)cc(C(F)(F)F)c4)C3=O)cc2)CC1 in, do you know?
[out] L

[in] Which of the defined bands does the recorded GI50 of CN(C)C1CCN(C(=O)c2ccc(N3N=C(c4ccccc4)C(=C4CCN(C(=O)c5ccc(O)cc5)CC4)C3=O)cc2)CC1 sit within?
[out] H

[in] Assign a bin to COc1cc(N/N=C2\C(=O)N(c3ccc(C(=O)N4CCC(N(C)C)CC4)cc3)N=C2c2ccccc2)ccc1F
[out] M

[in] Textbook exercise: identify the category of the molecule given here, CC1=NN(c2ccc(C(=O)N3CCC(N(C)C)CC3)cc2)C(=O)/C1=N\Nc1ccccc1 , according to its measured value.
[out] M

[in] Quick check: band for O=C(c1cscn1)N1CCC(C2=NN(c3nc(-c4ccccc4)cs3)C(=O)/C2=N\Nc2nccs2)CC1
[out] H

[in] Category lookup for the molecule O=C(c1ccc(N2N=C(c3ccccc3)/C(=N/Nc3ccccc3)C2=O)cc1)N1CCN(C2COC2)CC1
[out] H

[in] # bin lookup: classify CN(C)C1CCN(C(=O)c2ccc(N3N=C(c4ccccc4)/C(=C/Nc4ccccc4)C3=O)cc2)CC1 by its GI50
[out] H

[in] Exercise: read the entry CN(C)C1CCN(C(=O)c2ccc(N3N=C(c4ccccc4)/C(=N/Nc4ccc(O)cc4)C3=O)cc2)CC1 and state which class it falls under.
[out] L

* * *

Target protein (sequence): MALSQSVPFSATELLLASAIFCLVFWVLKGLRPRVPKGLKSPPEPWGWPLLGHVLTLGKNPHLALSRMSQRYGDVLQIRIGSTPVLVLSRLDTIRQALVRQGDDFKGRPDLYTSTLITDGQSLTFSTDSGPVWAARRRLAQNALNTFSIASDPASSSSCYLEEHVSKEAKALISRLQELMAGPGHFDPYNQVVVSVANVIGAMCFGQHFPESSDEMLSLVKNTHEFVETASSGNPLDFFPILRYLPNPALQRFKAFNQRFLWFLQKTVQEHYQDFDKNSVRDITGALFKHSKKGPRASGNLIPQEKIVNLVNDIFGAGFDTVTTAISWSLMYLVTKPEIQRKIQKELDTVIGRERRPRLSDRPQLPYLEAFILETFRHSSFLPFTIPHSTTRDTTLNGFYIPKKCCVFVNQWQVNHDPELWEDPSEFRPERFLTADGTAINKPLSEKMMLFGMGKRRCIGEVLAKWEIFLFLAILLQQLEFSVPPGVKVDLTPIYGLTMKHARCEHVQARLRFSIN
recorded metric: IC50

[in] Query: IC50; subject: CN(C)C1CCN(C(=O)c2ccc(N3N=C(c4ccccc4)/C(=N/Nc4ccccc4)C3=O)cc2)CC1
[out] > 50 µM

* * *

# System: HCT-116
# experiment: Antiproliferative activity against human HCT-116 cells assessed as cell growth inhibition incubated for 72 hrs by MTT assay
# Type: functional
Kindly supply the reported GI50 values for the records listed here.
# value in µM; strip the unit string

[in] Fill in the blank: the reported GI50 of CN1CCN(C(=O)c2ccc(N3N=C(c4ccccc4)/C(=N/Nc4ccccc4)C3=O)cc2)CC1 is ____.
[out] 21.9

[in] Which GI50 value belongs to CN(C)C1CCN(C(=O)c2ccc(N3N=C(c4ccccc4)/C(=N/Nc4ccccc4)C3=O)cc2)CC1 ?
[out] 3.31

* * *

# experiment: Metabolic stability in mouse liver microsomes assessed as parent compound remaining at 100 uM incubated for 60 mins in absence of NADPH by LC-MS/MS analysis
I'd appreciate it if you could supply remaining at 1 h, 100 µM values for the items below.
Numeric answer only, unit % assumed.

[in] # lookup: remaining at 1 h, 100 µM of CN(C)C1CCN(C(=O)c2ccc(N3N=C(c4ccccc4)/C(=N/Nc4ccccc4)C3=O)cc2)CC1
[out] 96

[in] Bench note: what remaining at 1 h, 100 µM did O=C1/C(=N\Nc2nccs2)C(c2ccccc2)=NN1c1nc(-c2ccccc2)cs1 show?
[out] 84.8

* * *

Consider the following molecules; for each one, report its GI50.
# Tested on: PC-3
# experiment: Antiproliferative activity against human PC-3 cells assessed as cell growth inhibition incubated for 72 hrs by MTT assay
# Format: functional
Lab book: enter the figure in µM, no units written.

[in] Would you kindly share the measured GI50 for CN(C)C1CCN(C(=O)c2cccc(N3N=C(c4ccccc4)/C(=N/Nc4ccccc4)C3=O)c2)CC1 ?
[out] 10.7

[in] Entry under review: CN(C)C1CCN(C(=O)c2ccc(N3N=C(c4ccccc4)/C(=N/Nc4ccc5ccccc5c4)C3=O)cc2)CC1 . Reported GI50?
[out] 4.78

[in] Suppose we examine the molecule CN(C)C1CCN(C(=O)c2ccc(N3N=C(c4ccccc4)/C(=N/Nc4cc(C(F)(F)F)cc(C(F)(F)F)c4)C3=O)cc2)CC1 ; what GI50 value has been reported?
[out] 1.15

[in] Which GI50 reading was recorded for the molecule CC1CCN(C(=O)c2cccc(N3N=C(c4ccccc4)/C(=N/Nc4ccccc4)C3=O)c2)CC1 ?
[out] 2.41

[in] Would you mind telling me what GI50 value was observed for CN(C)C1CCN(C(=O)c2ccc(N3N=C(C4CC4)/C(=N/Nc4ccccc4)C3=O)cc2)CC1 ?
[out] 7.14

[in] Give its GI50 value. Item: O=C(NCc1ccncc1)c1ccc(N2N=C(c3ccccc3)/C(=N/Nc3ccccc3)C2=O)cc1
[out] 12.6
